These entries and their values trace back to patent US12305172.

- tgt: thrombin (UniProt P00734+P00734)
- condition-summary: CD titration at 295 nm; water, no added cations; n = 1

| seq-text | tgt | units | Kd |
| --- | --- | --- | --- |
| GGTTGGTGTGGTTGG [TBA] | thrombin (UniProt P00734+P00734) | µM | 0.38 |
